The values you see were collected from PubChem BioAssay AID720650.

assay: Biochemical counterscreen for C difficile toxins, absence of UDPG, inhibitor dose response (AID 720650); conditions: series mostly up to 19.5 µM
Activity calls are given as the source filed them. How the calls were made is not given here.
measured-endpoint: AC50

compound-smiles	result
CC(C)Sc1nnc(NC(=O)c2ccco2)s1	inactive
Cc1onc(-c2c(F)cccc2Cl)c1C(=O)Nc1nnc(C(F)(F)F)s1	inactive
C[C@H](CO)N1C[C@H](C)[C@@H](CN(C)C(=O)Nc2ccc(C(F)(F)F)cc2)Oc2c(NS(=O)(=O)c3ccccc3)cccc2C1=O	> 39 µM (inactive)
N#CCCN(C(=O)COC(=O)c1cc(=O)c2ccccc2o1)c1ccccc1	inactive
CCCCNC(=O)C1CCN(S(=O)(=O)c2c(C)noc2/C=C\c2ccc(OC)cc2)CC1	inactive
